- Experimental Protocol: chemical genetic growth profiling, strain panel (AID 1159580);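 note: tested at 20 µM; growth read once vehicle control cultures reached saturation at 30 °C; 1 = growth at the plate median or of vehicle wells; lower values mean less growth of the strain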
- Assay Context: S. cerevisiae deletion strains, growth OD, locus YHR205W, strain SCH9
The whole screen tested about 5,500 compounds, of which about 2,000 (36%) were called active. Another 18% or so got no clear call; they are omitted. Cut-off read from the data, not from the text of the source: active = normalized growth mostly below about 0.91 (no sharp cut-off); inconclusive = no clear call, values can overlap the other calls; inactive = mostly above about 0.92. This is one part of the list.
Answer with one of the outcomes given here: true (1) for active, false (0) for inactive

- Compound: "NNC(=O)c1oc2nc(-c3ccccc3)cc(-c3ccccc3)c2c1N"
  Answer Label: "false (0)"
- Compound: "O=C(Nc1ccc(F)cc1F)c1cc(Cl)ccc1O"
  Answer Label: "false (0)"
- Compound: "O=S(=O)(Nc1c(F)cccc1F)c1ccc(Cl)c(Cl)c1"
  Answer Label: "false (0)"

# input // return assay outcome for "O=[N+]([O-])c1cc(C(F)(F)F)ccc1Sc1n[nH]c(-c2cc(Cl)cc(Cl)c2)n1"
# output true (1)

# input Repeat with "O=S(=O)(Nc1cc(C(F)(F)F)cc(C(F)(F)F)c1)c1ccc(Cl)s1"
# output false (0)

Hello, the source for this data is PubChem BioAssay AID1159580, in case you need it.
